# Tested on: HBV
# test.description: Cell-based anti-HBV activity of HF9C6 analogs (Table 2; HBV DNA in HepAD38 cells)
# setup.conditions: Hepatitis B virus
pEC50: −log10 of the molar value.
measured.parameter: pEC50

Query: I am curious: what pEC50 value has been reported for CCOC(=O)c1sc2[nH]c(Cc3ccccc3)nc(=O)c2c1C ?
Reply: < 5.00

====

# test.description: Cytotoxicity, Cell Proliferation Kit II (XTT) (Table 2)
# Format: cell-based
# setup.conditions: human
measured.parameter: CC50

Query: I am curious: what CC50 value has been reported for Cc1c(C(=O)Nc2ccccc2)sc(N)c1C(=O)Nc1ccc(F)c(F)c1 [ZW-933] ?
Reply: 40.5 µM

Query: Try the molecule Cc1c(C(=O)Nc2ccccc2)sc(NC(=O)c2cc(Cl)cc(Cl)c2)c1C(N)=O [ZW-1040]
Reply: 49.5 µM

Query: Try the molecule Cc1c(C(=O)Nc2ccc(Cl)c(C(F)(F)F)c2)sc(N)c1C(N)=O [ZW-1067]
Reply: 72.1 µM

Query: Try the molecule Cc1cc(NC(=O)c2sc(N)c(C(N)=O)c2C)ccc1Br [ZW-1068]
Reply: 107 µM

Query: Try the molecule Cc1c(C(=O)Nc2cc(F)c(F)c(Cl)c2)sc(N)c1C(N)=O [ZW-1034]
Reply: 71.8 µM

Query: Try the molecule Cc1cc(NC(=O)c2sc(N)c(C#N)c2C)ccc1F [ZW-1044]
Reply: 96.1 µM

Query: Try the molecule CCOC(=O)c1c(N)sc(C(=O)Nc2ccccc2)c1C [ZW-1045]
Reply: 75.9 µM

Query: Try the molecule Cc1cc(NC(=O)c2c(N)sc(C(=O)Nc3ccccc3)c2C)ccc1F [ZW-934]
Reply: 39.6 µM

Query: Try the molecule Cc1c(C(=O)Nc2ccc(F)c(F)c2)sc(N)c1C(=O)Nc1ccccc1 [ZW-892]
Reply: 26.2 µM
